Molecular target: T1, IL13RA2 Protein, Rhesus macaque, His tag (Rhesus macaque, UniProt A0A5F8A9D9 27-343)
T1 construct: the summary sentence says cynomolgous; also called Rhesus macaque IL13R alpha 2 protein with His tag; cynomolgous IL 13RA2 (as the text calls it); not shown: His tag
T1 sequence: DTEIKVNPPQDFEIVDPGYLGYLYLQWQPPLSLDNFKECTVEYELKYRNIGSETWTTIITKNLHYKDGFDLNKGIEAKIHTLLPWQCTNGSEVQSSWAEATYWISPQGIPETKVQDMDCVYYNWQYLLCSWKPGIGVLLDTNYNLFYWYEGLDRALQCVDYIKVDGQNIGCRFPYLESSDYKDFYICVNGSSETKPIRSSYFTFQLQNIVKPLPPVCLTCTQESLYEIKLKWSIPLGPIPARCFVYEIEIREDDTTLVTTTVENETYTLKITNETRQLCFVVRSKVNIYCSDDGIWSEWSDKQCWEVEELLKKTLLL
Assay: BLI; biotinylated VHH captured on streptavidin biosensor, antigen 1 uM in solution
Exercise: for every item that follows, state its recorded Kd.
Quick note: give the figure in nM, leave out the unit.

Quick one: Kd for VH43f2 (VHH, biotinylated (site not stated), Expressed in E. coli and 6xHIS purified; also called VH43f2-Biotin; Anti-IL13Rα2 VH43) VHH: QVQLQESGGGLVQPGGSLRLSCTASGSIRGIGYMAWGRQGPGKPRELIATINSAGDTNYAESVKGRFTVSRDNAENTLYLQMNNLKSEDTAVYYCNARPGLQSYWGQGTQVTVSS ?
27.1

Quick one: Kd for VH57f5 (VHH, biotinylated (site not stated), Expressed in E. coli and 6xHIS purified; also called VH57f5 Biotin; Anti-IL13Rα2 VH57) VHH: QVQLQESGGGLVQPGGSLRLSCAASGSIFNTNGMGWYRQAPGKQRERVAGISSGGNTVYAASVEGRFTISRDNAKNTGYLQMNNLKPEDTAVYYCRVAGRQDDYWGQGTQVTVSS ?
112
